Reference source: the supplement of paper PMC10307832

System: Calu-6
ASSAY_INFO: relative viability (nuclei count vs DMSO), 5 days (fraction); higher = more cells survive
EXPERIMENTAL_SETUP: first compound 0.04 µM
REPORTED_PROPERTY: relative viability
Reply with just the number.

# input Supply recorded relative viability for COc1cc(N2CCC(C(N)=O)CC2)ccc1Nc1nc(N)c(Cl)c(Nc2ccccc2S(=O)(=O)C(C)C)n1 [HG-5-88-01] + CC(C)C[C@H](NC(=O)[C@H](Cc1ccccc1)NC(=O)c1cnccn1)B(O)O [Bortezomib] (partner 0.002 µM) here.
# output 1.03

***
# input Could you please provide reported relative viability for Clc1ccc(Nc2nnc(Cc3ccncc3)c3ccccc23)cc1 [Vatalanib] + CS(=O)(=O)CCNCc1ccc(-c2ccc3ncnc(Nc4ccc(OCc5cccc(F)c5)c(Cl)c4)c3c2)o1 [Lapatinib] (partner 2 µM) ? Thanks!
# output 1.14

# input Tell us which relative viability value is on record for COc1cc(N2CCC(C(N)=O)CC2)ccc1Nc1nc(N)c(Cl)c(Nc2ccccc2S(=O)(=O)C(C)C)n1 [HG-5-88-01] + COc1cc2c(Oc3ccc(NC(=O)C4(C(=O)Nc5ccc(F)cc5)CC4)cc3F)ccnc2cc1OCCCN1CCOCC1 [Foretinib] (partner 0.25 µM)
# output 0.865

---

Test system: HCC-366
ASSAY_INFO: relative viability (nuclei count vs DMSO), 5 days (fraction); higher = more cells survive
EXPERIMENTAL_SETUP: first compound 0.1265 µM
REPORTED_PROPERTY: relative viability
# output: bare number, no unit

# input # return recorded relative viability for entry COc1cc(N2CCC(C(N)=O)CC2)ccc1Nc1nc(N)c(Cl)c(Nc2ccccc2S(=O)(=O)C(C)C)n1 [HG-5-88-01] + CC(=O)c1c(C)c2cnc(Nc3ccc(N4CCNCC4)cn3)nc2n(C2CCCC2)c1=O [Palbociclib] (partner 0.5 µM)
# output 0.41

# input Supply measured relative viability of C[C@@H]1CN(CC(=O)Nc2ccc3c(c2)Cc2cccc(-c4cc(=O)cc(N5CCOCC5)o4)c2S3)C[C@H](C)O1 + NC(=O)Nc1cc(-c2cccc(F)c2)sc1C(=O)N[C@H]1CCCNC1 [AZD7762] (partner 0.2 µM) in your reply.
# output 0.253

# input Given the compound Clc1ccc(Nc2nnc(Cc3ccncc3)c3ccccc23)cc1 [Vatalanib] + Nc1nc2[nH]cc(CCc3ccc(C(=O)N[C@@H](CCC(=O)O)C(=O)O)cc3)c2c(=O)[nH]1 [Pemetrexed] (partner 0.2 µM) , write its reported relative viability.
# output 0.133

Here is another compound to look at.
# input Fill in reported relative viability for this entry: COc1cc(N2CCC(C(N)=O)CC2)ccc1Nc1nc(N)c(Cl)c(Nc2ccccc2S(=O)(=O)C(C)C)n1 [HG-5-88-01] + CC(=O)Nc1cccc(-n2c(=O)n(C3CC3)c(=O)c3c(Nc4ccc(I)cc4F)n(C)c(=O)c(C)c32)c1 [Trametinib] (partner 0.02 µM)
# output 0.366

---

System: NCI-H1651
ASSAY_INFO: relative viability (nuclei count vs DMSO), 5 days (fraction); higher = more cells survive
EXPERIMENTAL_SETUP: first compound 0.4 µM
REPORTED_PROPERTY: relative viability
Number only, no unit.

Use these answered entries as a reference point.
# input For the compound C[C@@H]1CN(CC(=O)Nc2ccc3c(c2)Cc2cccc(-c4cc(=O)cc(N5CCOCC5)o4)c2S3)C[C@H](C)O1 + COc1cc2c(Oc3ccc(NC(=O)C4(C(=O)Nc5ccc(F)cc5)CC4)cc3F)ccnc2cc1OCCCN1CCOCC1 [Foretinib] (partner 0.25 µM) , report relative viability.
# output 0.96

# input Given C[C@@H]1CN(CC(=O)Nc2ccc3c(c2)Cc2cccc(-c4cc(=O)cc(N5CCOCC5)o4)c2S3)C[C@H](C)O1 + CC1(C)CCC(c2ccc(Cl)cc2)=C(CN2CCN(c3ccc(C(=O)NS(=O)(=O)c4ccc(N[C@H](CCN5CCOCC5)CSc5ccccc5)c(S(=O)(=O)C(F)(F)F)c4)cc3)CC2)C1 [Navitoclax] (partner 0.5 µM) , respond with its relative viability.
# output 0.836

# input Return relative viability (reported value) for this compound: C[C@@H]1CN(CC(=O)Nc2ccc3c(c2)Cc2cccc(-c4cc(=O)cc(N5CCOCC5)o4)c2S3)C[C@H](C)O1 + Nc1ncn([C@H]2C[C@H](O)[C@@H](CO)O2)c(=O)n1 [Decitabine] (partner 2 µM)
# output 0.585

Continuing:
# input Quick one: give measured relative viability for Clc1ccc(Nc2nnc(Cc3ccncc3)c3ccccc23)cc1 [Vatalanib] + Cc1nc(Nc2ncc(C(=O)Nc3c(C)cccc3Cl)s2)cc(N2CCN(CCO)CC2)n1 [Dasatinib] (partner 0.075 µM)
# output 0.421
